- Procedure Text: Plasma pharmacokinetics of rucaparib (LC-MS/MS, noncompartmental)
- Condition Notes: human, plasma, po, 80 mg, tmax, oral 80 mg q.d. for 14 days; median (minimum, maximum)
Result Type: Tmax at 14 days

Quick note, Tmax at 14 days for `CNCc1ccc(-c2[nH]c3cc(F)cc4c3c2CCNC4=O)cc1` landed at 2.5 h

* * *

- Procedure Text: Plasma pharmacokinetics of rucaparib (LC-MS/MS, noncompartmental)
- Condition Notes: human, plasma, po, 360 mg, tmax, single oral dose 360 mg, day 1; median (minimum, maximum)
Result Type: Tmax (h)
Express your answer in h, writing the number without its unit.

Quick note, Tmax for `CNCc1ccc(-c2[nH]c3cc(F)cc4c3c2CCNC4=O)cc1` landed at 4
